B1: TAP–Bag-1S [human] / PDIA3 [human (endogenous in MCF-7 and MCF-12A)] (parent)
chain 1: MNRSQEVTRDEESTRSEEVTREEMAAAGLTVTVTHSNEKHDLHVTSQQGSSEPVVQDLAQVVEEVIGVPQSFQKLIFKGKSLKEMETPLSALGIQDGCRVMLIGKKNSPQEEVELKKLKHLEKSVEKIADQLEELNKELTGIQQGFLPKDLQAEALCKLDRRVKATIEQFMKILEEIDTLILPENFKDSRLKRKGLVKKVQAFLAECDTVEQNICQETERLQSTNFALAE
chain 2: SDVLELTDDNFESRISDTGSAGLMLVEFFAPWCGHCKRLAPEYEAAATRLKGIVPLAKVDCTANTNTCNKYGVSGYPTLKIFRDGEEAGAYDGPRTADGIVSHLKKQAGPASVPLRTEEEFKKFISDKDASIVGFFDDSFSEAHSEFLKAASNLRDNYRFAHTNVESLVNEYDDNGEGIILFRPSHLTNKFEDKTVAYTEQKMTSGKIKKFIQENIFGICPHMTEDNKDLIQGKDLLIAYYDVDYEKNAKGSNYWRNRVMMVAKKFLDAGHKLNFAVASRKTFSHELSDFGLESTAGEIPVVAIRTAKGEKFVMQEEFSRDGKALERFLQDYFDGNLKRYLKSEPIPESNDGPVKVVVAENFDEIVNNENKDVLIEFYAPWCGHCKNLEPKYKELGEKLSKDPNIVIAKMDATANDVPSPYEVRGFPTIYFSPANKKLNPKKYEGGRELSDFISYLQREATNPPVIQEEKPKKKKKAQEDL

- Variants of: B1
- Protocol Notes: TAP pull-down interactome analysis (LC-MS/MS)
- Run Parameters: with PDIA3 [human (endogenous in MCF-7 and MCF-12A)]; MCF-7 cells; read off a plot
Listed variants paired with reported screen value
Give your result in log2 as a bare value.

Example entries and their recorded answers appear below.
What value of measured screen value is listed for chain 1 R162E ? -0.62

Do the same for chain 1 I103K please -0.07

Others:
Tell me the measured screen value of chain 1 R161D , please. -1.5

Also chain 1 R193D ? -0.1

Cited source: paper PMC8384158
